Target: Cathepsin D (Cat D) (Homo sapiens)
Assay: In vitro enzymatic Cathepsin D (Cat D) FRET assay
Format: biochemical
Conditions: text summary referring to data in Table 2
pIC50: −log10 of the molar value.

| Compound | pIC50 |
| --- | --- |
| C[C@H]1C[C@@H]2[C@](C)(N=C(N)C(C)(C)S2(=O)=O)c2cc(NC(=O)c3ncc(C(F)(F)F)cc3Cl)ccc2O1 | < 2.92 |
| Cc1cc(C#N)cnc1C(=O)Nc1ccc2c(c1)[C@@]1(C)N=C(N)C(C)(C)S(=O)(=O)[C@@H]1C[C@H](C)O2 | < 2.92 |
| COc1cnc(C(=O)Nc2ccc3c(c2)[C@@]2(C)N=C(N)C(C)(C)S(=O)(=O)[C@@H]2CC(C)(C)O3)cn1 | < 2.92 |
| CC1(C)C(N)=N[C@]2(C)c3cc(NC(=O)c4ncc(Cl)cc4Cl)ccc3OCC[C@H]2S1(=O)=O | < 3.10 |
| CC#C[C@H](C)Oc1cnc(C(=O)Nc2ccc3c(c2)[C@@]2(C)N=C(N)C(C)(C)S(=O)(=O)[C@@H]2CCO3)cn1 | < 2.92 |
| C[C@H]1C[C@@H]2[C@](C)(N=C(N)C(C)(C)S2(=O)=O)c2cc(NC(=O)c3ccc(C#N)cn3)ccc2O1 | < 2.92 |
| COc1ccc(C(=O)Nc2ccc3c(c2)[C@@]2(C)N=C(N)C(C)(C)S(=O)(=O)[C@@H]2C[C@H](C)O3)nc1 | < 2.92 |
| CC#C[C@@H](C)Oc1ccc(C(=O)Nc2ccc3c(c2)[C@@]2(C)N=C(N)C(C)(C)S(=O)(=O)[C@@H]2CCO3)nc1 (single isomer, unassigned) | < 2.92 |
| Cc1cc(C#CC2CC2)cnc1C(=O)Nc1ccc2c(c1)[C@@]1(C)N=C(N)C(C)(C)S(=O)(=O)[C@@H]1CCO2 | < 3.10 |
| Cc1cc(C#N)cnc1C(=O)Nc1ccc2c(c1)[C@@]1(C)N=C(N)C(C)(C)S(=O)(=O)[C@@H]1CCC2 | < 2.92 |
| CC1(C)C(N)=N[C@]2(C)c3cc(NC(=O)c4ncc(C(F)(F)F)cc4Cl)ccc3OCC[C@H]2S1(=O)=O | < 2.92 |
| CCc1ccc(C(=O)Nc2ccc3c(c2)[C@@]2(C)N=C(N)C(C)(C)S(=O)(=O)[C@@H]2CCO3)nc1 | < 2.92 |
| Cc1cnc(COc2cnc(C(=O)Nc3ccc4c(c3)[C@@]3(C)N=C(N)C(C)(C)S(=O)(=O)[C@@H]3C[C@H](C)O4)cn2)o1 | < 2.92 |

###

Target: Cathepsin D (Cat D) (Homo sapiens, UniProt P07339)
Sequence (P07339 65-412, species assumed): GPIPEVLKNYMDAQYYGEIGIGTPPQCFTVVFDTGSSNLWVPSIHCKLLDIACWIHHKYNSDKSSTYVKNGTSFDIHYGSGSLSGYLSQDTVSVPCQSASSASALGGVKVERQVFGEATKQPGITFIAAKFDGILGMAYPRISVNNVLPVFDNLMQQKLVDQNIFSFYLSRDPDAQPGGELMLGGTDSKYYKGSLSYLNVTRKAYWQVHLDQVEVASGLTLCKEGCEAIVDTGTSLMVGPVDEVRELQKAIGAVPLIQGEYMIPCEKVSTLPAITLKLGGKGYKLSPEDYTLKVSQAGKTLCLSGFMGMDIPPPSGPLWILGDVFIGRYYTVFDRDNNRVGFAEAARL
Test: In vitro enzymatic Cathepsin D (Cat D) FRET assay
Format: biochemical
Conditions: read-out: CatD IC50
pIC50: −log10 of the molar value.
# label = true (1) if pIC50 >= 3 else false (0)

| Molecule | Category |
| --- | --- |
| CC1(C)C(N)=N[C@]2(C)c3cc(Nc4nccc5cc(Cl)cnc45)ccc3CCC[C@H]2S1(=O)=O [Example 46] | true (1) |
| Cc1cc(OC(F)F)cnc1C(=O)Nc1ccc2c(c1)[C@@]1(C)N=C(N)C(C)(C)S(=O)(=O)[C@@H]1CCC2 [Example 41] | false (0) |
| Cc1cc(Cl)cnc1C(=O)Nc1cnc2c(c1)[C@@]1(C)N=C(N)C(C)(C)S(=O)(=O)[C@@H]1CCO2 [Example 18] | false (0) |
| CC1(C)C(N)=N[C@]2(C)c3cc(Nc4nccc5cc(C#N)cnc45)ccc3CCC[C@@H]2S1(=O)=O [Example 33] | true (1) |
| Cc1cc(Cl)cnc1C(=O)Nc1ccc2c(c1)[C@@]1(C)N=C(N)C(C)(C)S(=O)(=O)[C@@H]1CCC2 [Example 11] | true (1) |
| Cc1cc(Cl)cnc1C(=O)Nc1cnc2c(c1)[C@@]1(C)N=C(N)C3(CCC3)S(=O)(=O)[C@H]1CCO2 [Example 58] | true (1) |
| Cc1cc(C(F)(F)F)cnc1C(=O)Nc1ccc2c(c1)[C@@]1(C)N=C(N)C(C)(C)S(=O)(=O)[C@@H]1C[C@H](C)O2 [Example 54] | false (0) |
| Cc1cc(Cl)cnc1C(=O)Nc1ccc2c(c1)[C@@]1(C)N=C(N)C(C)(C)S(=O)(=O)[C@]1(C)CCO2 [Example 27] | true (1) |
| CC1(C)C(N)=N[C@]2(C)c3cc(Nc4nccc5cc(C#N)cnc45)ccc3CCC[C@H]2S1(=O)=O [Example 47] | true (1) |
| Cc1cc(Cl)cnc1C(=O)Nc1ccc2c(c1)[C@@]1(C)N=C(N)C(C)(C)S(=O)(=O)[C@H]1C[C@@H](C)O2 [Example 181] | true (1) |
| Cc1nc(OCC2CC2)cnc1C(=O)Nc1ccc2c(c1)[C@@]1(C)N=C(N)C(C)(C)S(=O)(=O)[C@@H]1CCO2 [Example 178] | true (1) |
| CC#CCOc1cnc(C(=O)Nc2ccc3c(c2)[C@@]2(C)N=C(N)C(C)(C)S(=O)(=O)[C@@H]2CCO3)cn1 [Example 191] | true (1) |
